Values were extracted from patent US20260262643A1.

Measured pest or weed control at 125 g/ha of individual entries
Test system: ragweed
Experiment: Test A postemergence
Type: in vivo, Ambrosia artemisiifolia
Settings: Ambrosia artemisiifolia, post-emergence, 240 h, 125 g ai/ha, postemergence, 10 days, 0 to 100 scale (0 no effect, 100 complete control); read-out: Ragweed plant response rating
Write the number in % without appending the unit.

In the examples that follow, each entry is paired with its recorded pest or weed control at 125 g/ha.
Cc1cccc2c1O[C@@H](C)CN2C(=O)c1cccc(-n2cn[nH]c2=O)c1 [Compound 122]: 0
CCc1ncn(-c2ccc(OC)c(C(=O)N3C[C@H](C)Oc4c(Cl)cccc43)c2)n1 [Compound 88]: 70
Cc1ccc(-n2cnc(C3CCC3)n2)cc1C(=O)N1C[C@H](C)Oc2c(Cl)cccc21 [Compound 96]: 60

Let us examine a further case.
Problem: Report pest or weed control at 125 g/ha for C[C@H]1CN(C(=S)c2cccc(-n3cncn3)c2)c2cccc(Cl)c2O1 [Compound 139] please.
Solution: 0

----------
Test system: horseweed
Test: Test C postemergence
Format: in vivo, Erigeron canadensis
Conditions: 500 g ai/ha, postemergence, 10 days, 0 to 100 scale (0 no effect, 100 complete control)
Below is a list of entries, each paired with its recorded Plant response rating, Horseweed value.

The cases that follow already have their Plant response rating, Horseweed on record.
CC(C)(C)c1ncn(-c2cccc(C(=O)N3CC(C(F)(F)F)Oc4c(Cl)cccc43)c2)n1 (stereo not drawn): 0
CCOCC1CN(C(=O)c2cc(-n3cnc(C(C)(C)C)n3)ccc2OC)c2cccc(Cl)c2O1 (stereo not drawn): 30
COCc1ncn(-c2ccc(C)c(C(=O)N3C[C@H](C)Oc4c(Cl)cccc43)c2)n1: 80
Cc1cccc2c1O[C@@H](C)CN2C(=O)c1cccc(-n2cnc(N)n2)c1: 0

Problem: Tell me the measured Plant response rating, Horseweed of CCOC[C@H]1CN(C(=O)c2cc(-n3cnc(C(C)(C)C)n3)cc3c2OCO3)c2cccc(Cl)c2O1 , please.
Solution: 70

Problem: Query (compound): Cc1cccc2c1OC(C(F)(F)F)CN2C(=O)c1cccc(-n2cnc(C(C)C)n2)c1 (single isomer, unassigned) [Compound 303] ; field requested: Plant response rating, Horseweed
Solution: 20

Problem: Which Plant response rating, Horseweed value belongs to Cc1ccc(-n2cnc(C(C)C)n2)cc1C(=O)N1CC(C(F)(F)F)Oc2c(Cl)cccc21 (single isomer, unassigned) ?
Solution: 60

Problem: Look up Plant response rating, Horseweed: Cc1ncn(-c2cc(C(=O)N3CC(C(F)(F)F)Oc4c(Cl)cccc43)ccn2)n1 (stereo not drawn)
Solution: 0

Problem: Could you tell me which Plant response rating, Horseweed is on file for CC(C)c1ncn(-c2ccc([S+](C)[O-])c(C(=O)N3C[C@H](C)Oc4c(Cl)cccc43)c2)n1 (stereo partly drawn) ?
Solution: 20

Problem: Which Plant response rating, Horseweed is reported for this compound? CCOC[C@H]1CN(C(=O)c2cc(-n3cnc(C4CCC4)n3)cc3c2OCCO3)c2cccc(Cl)c2O1
Solution: 60

Problem: # Plant response rating, Horseweed lookup, item Cc1ncn(-c2ccc(C)c(C(=O)N3CC(C(F)(F)F)Oc4c(Cl)cccc43)c2)n1 (stereo not drawn)
Solution: 50

Problem: Would you mind telling me what Plant response rating, Horseweed value was observed for COC[C@H]1CN(C(=O)c2cc(-n3cnc(C(C)C)n3)cc3c2OCCO3)c2cccc(Cl)c2O1 ?
Solution: 60

Problem: Reported Plant response rating, Horseweed, compound CCOC[C@H]1CN(C(=O)c2cc(-n3cnc(CC)n3)ccc2C)c2cccc(Cl)c2O1 : ____
Solution: 30

Problem: Any idea what its Plant response rating, Horseweed is? The compound is CNc1ncn(-c2cccc(C(=O)N3C[C@H](C)Oc4c(C)cccc43)c2)n1
Solution: 20

Problem: Name the reported Plant response rating, Horseweed value associated with the compound CCOC[C@H]1CN(C(=O)c2cc(-n3cnc(CC)n3)cc3c2OCCO3)c2cccc(Cl)c2O1
Solution: 60
